B1: library; a variant is named by its letters at N, in order (parent)
chain: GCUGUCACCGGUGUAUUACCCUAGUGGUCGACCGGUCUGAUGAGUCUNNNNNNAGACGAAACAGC

# Variants of: B1
# assay_name: normalized RNA/DNA level with ligand (relative to sTRSVctl = 100) (log10 (% of sTRSVctl)); ligand: hypoxanthine (xanthine aptamer); higher = less ribozyme self-cleavage, higher mRNA level
# condition_label: ligand concentration (+) RNA-Seq: 5 mM, HEK293T, reporter: mCherry (pCS4076), ligand present: yes
normalized RNA/DNA level with ligand (log10) values by entry
Format: numeric value only, no unit, no commentary.

AUACCC = 1.94
AGCGGC = 1.96
AGGUCC = 1.96
ACGCAG = 1.58
CCGUAC = 1.92

Recorded normalized RNA/DNA level with ligand (log10) (variant UACCCC ): 1.95

Recorded normalized RNA/DNA level with ligand (log10) (variant GUUUCA ): 1.98

Recorded normalized RNA/DNA level with ligand (log10) (variant GAACCG ): 1.9

Recorded normalized RNA/DNA level with ligand (log10) (variant UCUGCA ): 1.92

Recorded normalized RNA/DNA level with ligand (log10) (variant GGGGCC ): 1.97

Recorded normalized RNA/DNA level with ligand (log10) (variant AAUAUC ): 1.95

Recorded normalized RNA/DNA level with ligand (log10) (variant UGCAGC ): 1.98
